// data source = ChEMBL document CHEMBL1140940

# test-method-notes: Clearance in dog at 2 mg/kg, iv
# Format: ADME, organism-based, Canis lupus familiaris
# Set-up: dose 2 mg/kg, route intravenous
# details: in vivo
reported-endpoint: clearance (mL/min/kg)
Just the number please, in mL/min/kg, no unit attached.

// query Requested field: clearance. Item: `CONC(=O)c1cn(-c2ccc3c(c2)CCC3)c2nc(Nc3ccc(C4CCN(C)CC4)cc3)ncc2c1=O`
// result 30

---

# test-method-notes: Metabolic stability in human liver microsomes after 10 mins
# Format: ADME, Microsome
# details: read-out: Stability
reported-endpoint: remaining at 10 min (%)
Just the number please, in %, no unit attached.

Here's what some known entries look like.
# molecule, readout-unit, remaining at 10 min
records = [
    ("CONC(=O)c1cn(-c2ccc3c(c2)CCC3)c2nc(Nc3ccc(CCN4CCN(C)C(=O)C4)cc3)ncc2c1=O", "%", 2.8),
    ("CONC(=O)c1cn(-c2ccc3c(c2)CCC3)c2nc(Nc3ccc(CCN4CCC(F)(F)CC4)cc3)ncc2c1=O", "%", 83),
]

Please look at the following molecule next.
// query Requested field: remaining at 10 min. Item: `CONC(=O)c1cn(-c2ccc3c(c2)CCC3)c2nc(Nc3ccc(C4CCN(C)CC4)cc3)ncc2c1=O`
// result 87
